target-or-test-system: TYK2 (Homo sapiens, UniProt P29597)
Construct: JAK1 (aa 850-1154) and TYK2 (aa 871-1187) are expressed with an N-terminally fused GST-tag; GST (N)
Sequence (P29597 871-1187): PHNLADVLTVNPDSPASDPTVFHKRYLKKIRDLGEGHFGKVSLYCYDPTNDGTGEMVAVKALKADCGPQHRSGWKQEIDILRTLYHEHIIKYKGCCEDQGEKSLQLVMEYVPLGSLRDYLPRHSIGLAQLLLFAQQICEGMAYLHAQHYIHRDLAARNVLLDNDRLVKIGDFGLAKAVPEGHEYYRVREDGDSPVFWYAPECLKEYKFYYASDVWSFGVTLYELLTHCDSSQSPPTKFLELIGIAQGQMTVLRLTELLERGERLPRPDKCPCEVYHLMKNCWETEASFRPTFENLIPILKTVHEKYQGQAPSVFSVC
assay-protocol: JAK kinase assay (HTRF, phosphorylation of synthetic peptide), TYK2
experimental-parameters: catalytic domain, ATP at Km (13 μM); read-out: TYK2 kinase inhibitory activity (EC50)
For each record, write down the corresponding EC50.

Looking up CN(CC1CCCN(C(=O)CCO)C1)S(=O)(=O)N1CCN(c2ncnc3[nH]ccc23)CC12CC2 (centres unmarked) [Example 154] , I see its EC50 listed as 100 to 500 nM

Looking up CN(CCC1CCS(=O)(=O)C1)S(=O)(=O)N1CCN(c2ncnc3[nH]ccc23)CC12CC2 (centres unmarked) [Example 75] , I see its EC50 listed as 100 to 500 nM

Looking up CN(C[C@@H]1CC(F)(F)CN1C(=O)CCO)S(=O)(=O)N1CCN(c2ncnc3[nH]ccc23)CC12CC2 [Example 155] , I see its EC50 listed as < 100 nM

Looking up CN(C1CC1)S(=O)(=O)N1CCN(c2ncnc3[nH]ccc23)CC12CC2 [Example 141] , I see its EC50 listed as 100 to 500 nM

Looking up CCN(C(C)C)S(=O)(=O)N1CCN(c2ncnc3[nH]ccc23)CC12CC2 [Example 95] , I see its EC50 listed as > 500 nM

Looking up CN(C[C@@H]1CC(F)(F)CN1S(=O)(=O)CC1CC1)S(=O)(=O)N1CCN(c2ncnc3[nH]ccc23)CC12CC2 [Example 164] , I see its EC50 listed as < 100 nM

Looking up O=S(=O)(N(CCO)C1CCC1)N1CCN(c2ncnc3[nH]ccc23)CC12CC2 [Example 101] , I see its EC50 listed as < 100 nM

Looking up CN(CC1CCC(F)(F)CC1)S(=O)(=O)N1CCN(c2ncnc3[nH]ccc23)CC12CC2 [Example 62] , I see its EC50 listed as < 100 nM
